- tested_target: human α7 nAChR (Homo sapiens)
- Construct: expressed in transfected cells; host or cells: Xenopus oocytes
- protocol_text: Two-electrode voltage clamping of human α7 nAChR expressed in Xenopus oocytes (net-charge / peak current relative to 60 μM ACh)
- Assay type: cell-based
- condition_info: 30 μM; normalized peak current / normalized net charge
endpoint_name: Ratio (peak current to net charge)

                                   compound                       endpoint_name  test_value
0  CC[N+]1(CC)CCN(c2ccc(Cl)cc2)CC1.[I-] [Compound 2e]  Ratio (peak current to net charge)        0.71
1  CC[N+]1(CC)CCN(c2ccccc2C)CC1.[I-] [Compound 2h]  Ratio (peak current to net charge)        0.46
2  CC[N+]1(CC)CCN(c2ccccc2Cl)CC1.[I-] [Compound 2j]  Ratio (peak current to net charge)        0.63
3  CC[N+]1(CC)CCN(c2ccc(C#N)cc2)CC1.[I-] [Compound 2b]  Ratio (peak current to net charge)        0.43
4  CC[N+]1(CC)CCN(c2ccc3ccccc3c2)CC1.[I-] [Compound 2m]  Ratio (peak current to net charge)        0.71
5  CC[N+]1(CC)CCN(c2cccc(O)c2)CC1.[I-] [Compound 2k]  Ratio (peak current to net charge)        0.67

###

- tested_target: human α7 nAChR (Homo sapiens)
- Construct: expressed in transfected cells; host or cells: Xenopus oocytes
- protocol_text: Two-electrode voltage clamping of human α7 nAChR expressed in Xenopus oocytes (net-charge / peak current relative to 60 μM ACh)
- Type: cell-based
- condition_info: net-charge response to 30 μM test compound alone, relative to 60 μM ACh control; mean ± SEM, N ≥ 4
endpoint_name: Relative response

                            smiles_structure                  tested_target  test_value
 0        CC[N+]1(CC)CCC(=Cc2ccccc2)CC1.[I-]  human α7 nAChR (Homo sapiens)       0.071
 1      CC[N+]1(CC)CCN(c2ccc(OC)cc2)CC1.[I-]  human α7 nAChR (Homo sapiens)       0.063
 2  CC[N+]1(CC)CCN(c2cccc(C(N)=O)c2)CC1.[I-]  human α7 nAChR (Homo sapiens)       0.056
 3       CC[N+]1(CC)CCN(c2ccc(F)cc2)CC1.[I-]  human α7 nAChR (Homo sapiens)       0.010
 4                  CCN1CCN(c2cccc(Br)c2)CC1  human α7 nAChR (Homo sapiens)       0.000
 5  CC[N+]1(CC)CCN(c2cccc(C(F)(F)F)c2)CC1.[I-]  human α7 nAChR (Homo sapiens)       0.000
 6     CC[N+]1(CC)CCN(c2cccc(C#N)c2)CC1.[I-]  human α7 nAChR (Homo sapiens)       0.022
 7         CC[N+]1(CC)CCC(Nc2ccccc2)CC1.[I-]  human α7 nAChR (Homo sapiens)       0.002
 8        CC[N+]1(CC)CCN(c2ccccc2Cl)CC1.[I-]  human α7 nAChR (Homo sapiens)       0.367
 9    CC[N+]1(CC)CCN(c2ccc3ccccc3c2)CC1.[I-]  human α7 nAChR (Homo sapiens)       0.143
10      CC[N+]1(CC)CCN(c2ccc(Cl)cc2)CC1.[I-]  human α7 nAChR (Homo sapiens)       0.234
11       CC[N+]1(CC)CCN(c2ccc(C)cc2)CC1.[I-]  human α7 nAChR (Homo sapiens)       0.011
12  CC[N+]1(CC)CCN(c2ccc(C(N)=O)cc2)CC1.[I-]  human α7 nAChR (Homo sapiens)       0.065
13         CC[N+]1(CC)CCN(c2ccccc2C)CC1.[I-]  human α7 nAChR (Homo sapiens)       0.319
14      CC[N+]1(CC)CCN(c2cccc(OC)c2)CC1.[I-]  human α7 nAChR (Homo sapiens)       0.011
15     CC[N+]1(CC)CCN(c2ccc(C#N)cc2)CC1.[I-]  human α7 nAChR (Homo sapiens)       0.234
16    CC[N+]1(CC)CCN(c2ccc(OC)cc2OC)CC1.[I-]  human α7 nAChR (Homo sapiens)       0.014
17       CC[N+]1(CC)CCN(c2cccc(F)c2)CC1.[I-]  human α7 nAChR (Homo sapiens)       0.061
18            CCN1CCN(c2ccc(C(F)(F)F)cc2)CC1  human α7 nAChR (Homo sapiens)       0.000
19  CC[N+]1(CC)CCN(c2ccc(C(F)(F)F)cc2)CC1.[I-]  human α7 nAChR (Homo sapiens)       0.032
20       CC[N+]1(CC)CCN(c2cccc(C)c2)CC1.[I-]  human α7 nAChR (Homo sapiens)       0.001
21       CC[N+]1(CC)CCN(c2cccc(O)c2)CC1.[I-]  human α7 nAChR (Homo sapiens)       0.283
22      CC[N+]1(CC)CCN(c2cccc(Cl)c2)CC1.[I-]  human α7 nAChR (Homo sapiens)       0.020
23      CC[N+]1(CC)CCN(c2cccc(Br)c2)CC1.[I-]  human α7 nAChR (Homo sapiens)       0.040
24                  CCN1CCN(c2cccc(Cl)c2)CC1  human α7 nAChR (Homo sapiens)       0.009
25      CC[N+]1(CC)CCN(c2ccc(Br)cc2)CC1.[I-]  human α7 nAChR (Homo sapiens)       0.270
26                   CCN1CCN(c2ccc(F)cc2)CC1  human α7 nAChR (Homo sapiens)       0.000

###

- tested_target: human α7 nAChR (Homo sapiens, UniProt P36544)
- Construct: expressed in transfected cells; host or cells: Xenopus oocytes
- Sequence (P36544 23-502): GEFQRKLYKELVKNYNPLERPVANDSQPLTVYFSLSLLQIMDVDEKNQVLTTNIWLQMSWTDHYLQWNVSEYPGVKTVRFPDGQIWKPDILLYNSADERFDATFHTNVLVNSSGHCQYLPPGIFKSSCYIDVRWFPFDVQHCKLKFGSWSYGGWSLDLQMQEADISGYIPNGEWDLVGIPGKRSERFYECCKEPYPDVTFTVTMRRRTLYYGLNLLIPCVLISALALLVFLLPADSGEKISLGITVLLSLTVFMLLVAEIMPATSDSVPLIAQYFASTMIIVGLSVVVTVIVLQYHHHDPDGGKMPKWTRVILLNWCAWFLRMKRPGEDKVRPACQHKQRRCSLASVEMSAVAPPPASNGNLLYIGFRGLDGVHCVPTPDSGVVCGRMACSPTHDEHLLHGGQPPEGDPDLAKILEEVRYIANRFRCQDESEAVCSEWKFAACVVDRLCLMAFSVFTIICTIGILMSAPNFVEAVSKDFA
- protocol_text: Two-electrode voltage clamping of human α7 nAChR expressed in Xenopus oocytes (net-charge / peak current relative to 60 μM ACh)
- Type: cell-based
- condition_info: 30 μM compound alone, relative to 60 μM ACh controls (n ≥ 4)
- Method: Electrophysiology: The panel of compounds synthesized was assayed using human α7 nAChR expressed in Xenopus oocytes and two-electrode voltage clamping. The partial agonism activity was evaluated, quantified as net-charge for 30 μM applications of compounds, measured relative to the control response to applications of 60 μM ACh. […]
endpoint_name: Net Charge

                                   compound                             tested_target  endpoint_name  test_value
0  CC[N+]1(CC)CCN(c2ccc3ccccc3c2)CC1.[I-] [Compound 2m]  human α7 nAChR (Homo sapiens, UniProt P36544)     Net Charge        0.14
1  CC[N+]1(CC)CCN(c2ccc(C#N)cc2)CC1.[I-] [Compound 2b]  human α7 nAChR (Homo sapiens, UniProt P36544)     Net Charge        0.23
2  CC[N+]1(CC)CCN(c2cccc(O)c2)CC1.[I-] [Compound 2k]  human α7 nAChR (Homo sapiens, UniProt P36544)     Net Charge        0.28
3  CC[N+]1(CC)CCN(c2ccc(Cl)cc2)CC1.[I-] [Compound 2e]  human α7 nAChR (Homo sapiens, UniProt P36544)     Net Charge        0.23
4  CC[N+]1(CC)CCN(c2ccccc2C)CC1.[I-] [Compound 2h]  human α7 nAChR (Homo sapiens, UniProt P36544)     Net Charge        0.32
5  CC[N+]1(CC)CCN(c2ccccc2Cl)CC1.[I-] [Compound 2j]  human α7 nAChR (Homo sapiens, UniProt P36544)     Net Charge        0.37

###

- tested_target: human α7 nAChR (Homo sapiens)
- Construct: expressed in transfected cells; host or cells: Xenopus oocytes
- protocol_text: Two-electrode voltage clamping of human α7 nAChR expressed in Xenopus oocytes (net-charge / peak current relative to 60 μM ACh)
- Type: cell-based
- condition_info: 30 μM test compound + 10 μM PNU-120596 co-application, relative to 60 μM ACh control; mean ± SEM, N ≥ 4
endpoint_name: Potentiated response

>>> df
                            smiles_structure  test_value
 0      CC[N+]1(CC)CCN(c2cccc(Br)c2)CC1.[I-]        10.0
 1         CC[N+]1(CC)CCN(c2ccccc2C)CC1.[I-]        16.4
 2       CC[N+]1(CC)CCN(c2cccc(O)c2)CC1.[I-]        31.4
 3         CC[N+]1(CC)CCC(Nc2ccccc2)CC1.[I-]         5.6
 4                   CCN1CCN(c2ccc(F)cc2)CC1         0.0
 5     CC[N+]1(CC)CCN(c2cccc(C#N)c2)CC1.[I-]         1.5
 6  CC[N+]1(CC)CCN(c2ccc(C(N)=O)cc2)CC1.[I-]        43.9
 7       CC[N+]1(CC)CCN(c2ccc(C)cc2)CC1.[I-]         3.6
 8    CC[N+]1(CC)CCN(c2ccc3ccccc3c2)CC1.[I-]        15.9
 9       CC[N+]1(CC)CCN(c2cccc(F)c2)CC1.[I-]         0.2
10                  CCN1CCN(c2cccc(Br)c2)CC1         6.9
11  CC[N+]1(CC)CCN(c2ccc(C(F)(F)F)cc2)CC1.[I-]        61.8
12    CC[N+]1(CC)CCN(c2ccc(OC)cc2OC)CC1.[I-]         1.1
13      CC[N+]1(CC)CCN(c2cccc(OC)c2)CC1.[I-]         0.6
14  CC[N+]1(CC)CCN(c2cccc(C(N)=O)c2)CC1.[I-]        50.7
15        CC[N+]1(CC)CCN(c2ccccc2Cl)CC1.[I-]        36.6
16        CC[N+]1(CC)CCC(=Cc2ccccc2)CC1.[I-]         9.9
17  CC[N+]1(CC)CCN(c2cccc(C(F)(F)F)c2)CC1.[I-]         3.1
18                  CCN1CCN(c2cccc(Cl)c2)CC1         0.1
19            CCN1CCN(c2ccc(C(F)(F)F)cc2)CC1         1.4
20      CC[N+]1(CC)CCN(c2ccc(Cl)cc2)CC1.[I-]        18.3
21     CC[N+]1(CC)CCN(c2ccc(C#N)cc2)CC1.[I-]        68.0
22      CC[N+]1(CC)CCN(c2ccc(Br)cc2)CC1.[I-]        12.3
23      CC[N+]1(CC)CCN(c2ccc(OC)cc2)CC1.[I-]        11.6
24      CC[N+]1(CC)CCN(c2cccc(Cl)c2)CC1.[I-]         4.2
25       CC[N+]1(CC)CCN(c2ccc(F)cc2)CC1.[I-]        22.9
26       CC[N+]1(CC)CCN(c2cccc(C)c2)CC1.[I-]         0.2

Origin of the recorded values: patent US11155551B2
